Reference source for all entries: paper PMC6007964

The following molecules have recorded IC50 on NDM-1 (Klebsiella pneumoniae, UniProt C7C422).
Sequence (C7C422 29-270, looked up, species assumed): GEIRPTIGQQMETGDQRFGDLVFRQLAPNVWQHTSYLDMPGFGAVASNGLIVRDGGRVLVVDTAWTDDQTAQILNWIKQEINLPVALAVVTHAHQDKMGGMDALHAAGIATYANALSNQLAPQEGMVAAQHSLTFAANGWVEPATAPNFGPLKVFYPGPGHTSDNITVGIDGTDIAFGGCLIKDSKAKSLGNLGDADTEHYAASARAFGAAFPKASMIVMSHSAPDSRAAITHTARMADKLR

// solved cases for IC50 follow
# MOLECULE, SYSTEM_TESTED, IC50
records = [
    ("O=C(O)c1ccccn1 [compound 1, 2-picolinic acid]", "NDM-1 (Klebsiella pneumoniae, UniProt C7C422)", "> 100 µM"),
    ("Cc1cccc(C(=O)O)n1 [compound 2, 6-methylpicolinic acid]", "NDM-1 (Klebsiella pneumoniae, UniProt C7C422)", "> 100 µM"),
    ("O=P(O)(O)Cc1ccccn1 [compound 4, (pyridin-2-ylmethyl)phosphonic acid]", "NDM-1 (Klebsiella pneumoniae, UniProt C7C422)", "> 1000 µM"),
]

Now for the molecule whose IC50 we want.
Data request: Consider the molecule O=C(O)c1cccc(C(N(Cc2ccccc2)C(=O)c2cccs2)P(=O)(O)O)n1 (stereo not shown) [3c] and give its measured IC50.
Data returned: 0.306 µM

###

target: IMP-1 (Serratia marcescens, UniProt P52699)
Sequence (P52699 19-246, looked up): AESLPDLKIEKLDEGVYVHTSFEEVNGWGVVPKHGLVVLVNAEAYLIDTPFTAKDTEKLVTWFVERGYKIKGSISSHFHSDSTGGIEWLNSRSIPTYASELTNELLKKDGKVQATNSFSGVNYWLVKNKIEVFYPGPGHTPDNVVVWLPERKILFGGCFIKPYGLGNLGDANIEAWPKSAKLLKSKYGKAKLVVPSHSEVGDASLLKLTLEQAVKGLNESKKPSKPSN
READOUT: pIC50
Numbers only, as −log10 of the molar value.

# MOLECULE, SYSTEM_TESTED, pIC50
data = [
    ("O=C(O)c1cccc(C(O)P(=O)(O)O)n1 (centres unmarked)", "IMP-1 (Serratia marcescens, UniProt P52699)", 5.14),
]

Now for the molecule whose pIC50 we want.
Data request: # value lookup — system IMP-1 (Serratia marcescens, UniProt P52699), readout pIC50, item O=C(O)c1cccc(C(N(Cc2ccccc2)C(=O)c2cccs2)P(=O)(O)O)n1 (centres unmarked)
Data returned: 5.54

###

Please respond with reported Ki for every item in the list.
biological target: L1 (Stenotrophomonas maltophilia, UniProt P52700); test: Ki determination, slow-binding progress curves with nitrocefin; format: biochemical, S. maltophilia
Sequence (P52700 34-290): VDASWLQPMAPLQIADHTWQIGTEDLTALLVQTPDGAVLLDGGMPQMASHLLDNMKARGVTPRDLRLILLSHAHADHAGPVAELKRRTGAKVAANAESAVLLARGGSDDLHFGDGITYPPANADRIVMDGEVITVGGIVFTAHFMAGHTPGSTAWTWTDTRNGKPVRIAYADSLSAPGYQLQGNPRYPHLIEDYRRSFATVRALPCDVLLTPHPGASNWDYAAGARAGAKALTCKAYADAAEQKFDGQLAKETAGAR
Give bare numbers, in nM.

# MOLECULE, SYSTEM_TESTED, READOUT, UNIT_INFO, RECORDED_NUMBER
measured = [
    ("O=C(O)c1cccc(C(N(Cc2ccccc2)C(=O)c2cccs2)P(=O)(O)O)n1 (centres unmarked)", "L1 (Stenotrophomonas maltophilia, UniProt P52700)", "Ki", "nM", 400),
]

Now for the molecule whose Ki we want.
Data request: Consider the molecule O=C(O)c1cccc(C(O)P(=O)(O)O)n1 (centres unmarked) and give its measured Ki.
Data returned: 400

###

The following compounds have recorded IC50 on L1 (Stenotrophomonas maltophilia).
Numbers only, in µM.

# COMPOUND, UNIT_INFO, IC50
data = [
    ("O=C(O)c1cccc(C(O)P(=O)(O)O)n1 (centres unmarked)", "µM", 2.05),
]

Data request: Consider the compound O=C(O)c1cccc(C(N(Cc2ccccc2)C(=O)c2cccs2)P(=O)(O)O)n1 (centres unmarked) and give its measured IC50.
Data returned: 1.57

###

Please respond with reported pIC50 for every item in the list.
target: IMP-1 (Serratia marcescens)
pIC50: −log10 of the molar value.

# CHEMICAL_STRING, RESULT
data = [
    ("O=P(O)(O)Cc1ccccn1", "< 4.00"),
    ("O=C(O)c1ccccn1", "< 4.00"),
]

Now for the compound whose pIC50 we want.
Data request: Consider the compound Cc1cccc(C(=O)O)n1 and give its measured pIC50.
Data returned: < 4.00

###

The following compounds have recorded IC50 on UniProt:P52700.

# COMPOUND, IC50
measured = [
    ("Cc1cccc(C(=O)O)n1 [compound 2, 6-methylpicolinic acid]", "> 100 µM"),
]

Hi there! I need IC50 for each item below, if you can.
1. O=C(O)c1ccccn1 [compound 1, 2-picolinic acid]
2. O=P(O)(O)Cc1ccccn1 [compound 4, (pyridin-2-ylmethyl)phosphonic acid]

Data returned:
["> 100 µM", "> 1000 µM"]
